# test system: UniProtKB Q7ZJM1
# protocol summary: Inhibition of recombinant HIV-1 integrase strand transfer activity using 32P 5' end-labeled linear 21'mer as substrate preincubated for 30 mins prior to substrate challenge by phosphorimaging analysis
// values below are reported IC50

molecule: O=c1c(O)c(-c2ccc3c(c2)OC(c2ccccc2)(c2ccccc2)O3)oc2cc(O)cc(O)c12
IC50: > 20 µM

molecule: O=c1cc(-c2ccc(O)cc2)oc2cc(O)cc(O)c12 [APIGENIN]
IC50: > 20 µM

molecule: CC(C)(C)Oc1cc2oc(-c3ccccc3)cc(=O)c2c(O)c1O
IC50: > 100 µM

molecule: O=c1cc(-c2ccc(O)cc2)oc2cc(N3CCOCC3)cc(O)c12
IC50: > 20 µM

Attention now turns to another entry.
Given "O=c1c(-c2ccc(O)cc2)coc2cc(N3CCOCC3)cc(O)c12" , state its recorded IC50. > 20 µM

----------
# test system: Human immunodeficiency virus type 1 integrase (Human immunodeficiency virus 1, UniProt Q7ZJM1)
# Sequence (Q7ZJM1 whole entry): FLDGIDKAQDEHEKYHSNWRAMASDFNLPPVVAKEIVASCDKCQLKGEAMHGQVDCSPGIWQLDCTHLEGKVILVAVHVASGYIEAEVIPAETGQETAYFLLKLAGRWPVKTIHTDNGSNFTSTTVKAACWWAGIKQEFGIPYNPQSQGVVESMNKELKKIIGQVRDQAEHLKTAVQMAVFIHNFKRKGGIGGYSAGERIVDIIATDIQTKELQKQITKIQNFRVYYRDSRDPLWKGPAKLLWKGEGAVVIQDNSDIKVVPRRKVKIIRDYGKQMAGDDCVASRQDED
# protocol summary: Inhibition of His6-tagged HIV-1 integrase assessed as decrease in integrase-Flag-LEDGF/p75 interaction preincubated with enzyme for 30 mins followed by addition of Flag-LEDGF/p75 for 1 hr by AlphaScreen assay
// values below are reported IC50
Just the number in nM, nothing appended.

Below: 3 compounds and their reported IC50.
compound: O=c1c(O)c(-c2ccc(O)c(O)c2)oc2cc(O)cc(O)c12 [QUERCETIN]
IC50 / nM: 600
--
compound: O=c1c(O)c(-c2ccc(O)c(O)c2)oc2cc(O)cc(OCc3ccc(F)cc3)c12
IC50 / nM: 1800
--
compound: O=c1c(O)c(-c2ccc(O)c(OCc3ccc(F)cc3)c2)oc2cc(O)cc(O)c12
IC50 / nM: 1800

Attention now turns to another entry.
Given "O=c1cc(-c2ccc(O)cc2)oc2cc(N3CCOCC3)cc(O)c12" , state its recorded IC50. 1700

----------
# test system: Human immunodeficiency virus type 1 integrase (Human immunodeficiency virus 1)
# protocol summary: Inhibition of recombinant HIV-1 integrase strand transfer activity using 32P 5' end-labeled linear 21'mer as substrate preincubated for 30 mins prior to substrate challenge by phosphorimaging analysis
readout: pIC50
Please note pIC50 is a logarithmic value: minus log10 of concentration in mol/L. Answer with that number alone.

Below: 2 compounds and their reported pIC50.
compound: O=c1c(O)c(-c2ccc(O)c(O)c2)oc2cc(O)cc(O)c12 [QUERCETIN]
data value: 5.10

compound: O=c1c(-c2ccc(O)cc2)coc2cc(OCc3ccc(F)cc3)cc(O)c12
data value: 4.10

Attention now turns to another entry.
Given "O=c1cc(-c2ccccc2)oc2cc(OCc3ccc(F)cc3)c(O)c(O)c12" , state its recorded pIC50. 5.15

----------
# test system: Human immunodeficiency virus type 1 integrase (Human immunodeficiency virus 1)
# protocol summary: Inhibition of recombinant HIV-1 integrase strand transfer activity using 32P 5' end-labeled linear 21'mer as substrate preincubated for 30 mins prior to substrate challenge by phosphorimaging analysis
readout: IC50

structure smiles: O=c1cc(-c2ccc(O)c(O)c2)oc2cc(OCc3ccc(F)cc3)cc(O)c12
data value: > 20 µM

Given "O=c1cc(-c2ccc(O)c(O)c2)oc2cc(N3CCOCC3)cc(O)c12" , state its recorded IC50. > 20 µM

Given "CC(C)(C)Oc1cc(O)c2c(=O)cc(-c3ccc(O)cc3)oc2c1" , state its recorded IC50. > 20 µM

----------
// values below are reported IC50
# test system: Human immunodeficiency virus type 1 integrase (Human immunodeficiency virus 1)
# protocol summary: Inhibition of His6-tagged HIV-1 integrase assessed as decrease in integrase-Flag-LEDGF/p75 interaction preincubated with enzyme for 30 mins followed by addition of Flag-LEDGF/p75 for 1 hr by AlphaScreen assay
Just the number in nM, nothing appended.

Below: 2 compounds and their reported IC50.
compound: O=c1c(O)c(-c2ccc(OCc3ccc(F)cc3)c(O)c2)oc2cc(O)cc(O)c12
readout: IC50
data value: 1400

compound: O=c1cc(-c2ccc(O)cc2)oc2cc(O)cc(O)c12 [APIGENIN]
readout: IC50
data value: 1500

Given "O=c1c(O)c(-c2ccc(O)c(O)c2)oc2cc(OCc3ccc(F)cc3)cc(O)c12" , state its recorded IC50. 940

----------
# protocol summary: Therapeutic index, ratio of CC50 for human C8166 cells to EC50 for HIV-1 3B infected in human C8166 cells
# Assay type: cell-based
# run parameters: HIV-1 3B infected C8166 cells, read-out: Ratio CC50/EC50
// values below are reported selectivity ratio

compound: O=c1c(O)c(-c2ccc(O)c(O)c2)oc2cc(O)cc(OCc3ccc(F)cc3)c12
selectivity ratio: 5

compound: O=c1cc(-c2ccc(O)c(O)c2)oc2cc(OCc3ccc(F)cc3)cc(O)c12
selectivity ratio: 2

compound: O=c1c(O)c(-c2ccc(O)c(O)c2)oc2cc(N3CCOCC3)cc(O)c12
selectivity ratio: 5

compound: O=c1cc(-c2ccc(O)c(O)c2)oc2cc(O)cc(O)c12 [LUTEOLIN]
selectivity ratio: 7

compound: O=c1cc(-c2ccc(O)cc2)oc2cc(O)cc(O)c12 [APIGENIN]
selectivity ratio: 4

compound: O=c1c(-c2ccc(O)cc2)coc2cc(OCc3ccc(F)cc3)cc(O)c12
selectivity ratio: > 18

compound: O=c1c(-c2ccc(O)cc2)coc2cc(N3CCOCC3)cc(O)c12
selectivity ratio: > 242

compound: O=c1c(-c2ccc(O)cc2)coc2cc(O)cc(O)c12 [GENISTEIN]
selectivity ratio: 3

compound: O=C1C[C@@H](c2ccc(O)cc2)Oc2cc(O)cc(O)c21 [NARINGENIN]
selectivity ratio: 15

compound: O=c1cc(-c2ccc(O)c(O)c2)oc2cc(N3CCOCC3)cc(O)c12
selectivity ratio: 29

Given O=c1c(O)c(-c2ccc(O)c(O)c2)oc2cc(O)cc(O)c12 [QUERCETIN] , state its recorded selectivity ratio. 44

Given "O=c1c(O)c(-c2ccc(O)c(OCc3ccc(F)cc3)c2)oc2cc(O)cc(O)c12" , state its recorded selectivity ratio. 51

Given "CC(C)(C)Oc1cc(O)c2c(=O)cc(-c3ccc(O)cc3)oc2c1" , state its recorded selectivity ratio. 8

Given "CC(C)(C)Oc1cc(O)c2c(=O)cc(-c3ccccc3)oc2c1" , state its recorded selectivity ratio. 5

Given O=c1cc(-c2ccccc2)oc2cc(O)cc(O)c12 [CHRYSIN] , state its recorded selectivity ratio. 8

Given "O=c1c(O)c(-c2ccc(OCc3ccc(F)cc3)c(O)c2)oc2cc(O)cc(O)c12" , state its recorded selectivity ratio. 6

----------
# test system: Human immunodeficiency virus type 1 integrase (Human immunodeficiency virus 1, UniProt Q7ZJM1)
# protocol summary: Inhibition of His6-tagged HIV-1 integrase assessed as decrease in integrase-Flag-LEDGF/p75 interaction preincubated with enzyme for 30 mins followed by addition of Flag-LEDGF/p75 for 1 hr by AlphaScreen assay
pIC50: −log10 of the molar value.
readout: pIC50

Below: 2 molecules and their reported pIC50.
structure smiles: CC(C)(C)Oc1cc(O)c2c(=O)c(-c3ccc(O)cc3)coc2c1
data value: < 4.70
//
structure smiles: CC(C)(C)Oc1cc(O)c2c(=O)cc(-c3ccccc3)oc2c1
data value: < 4.70

Given "CC(C)(C)Oc1cc2oc(-c3ccccc3)cc(=O)c2c(O)c1O" , state its recorded pIC50. < 4.70
